# measurement.target: human Smoothened receptor (Homo sapiens, UniProt Q99835)
# Sequence (Q99835 28-787): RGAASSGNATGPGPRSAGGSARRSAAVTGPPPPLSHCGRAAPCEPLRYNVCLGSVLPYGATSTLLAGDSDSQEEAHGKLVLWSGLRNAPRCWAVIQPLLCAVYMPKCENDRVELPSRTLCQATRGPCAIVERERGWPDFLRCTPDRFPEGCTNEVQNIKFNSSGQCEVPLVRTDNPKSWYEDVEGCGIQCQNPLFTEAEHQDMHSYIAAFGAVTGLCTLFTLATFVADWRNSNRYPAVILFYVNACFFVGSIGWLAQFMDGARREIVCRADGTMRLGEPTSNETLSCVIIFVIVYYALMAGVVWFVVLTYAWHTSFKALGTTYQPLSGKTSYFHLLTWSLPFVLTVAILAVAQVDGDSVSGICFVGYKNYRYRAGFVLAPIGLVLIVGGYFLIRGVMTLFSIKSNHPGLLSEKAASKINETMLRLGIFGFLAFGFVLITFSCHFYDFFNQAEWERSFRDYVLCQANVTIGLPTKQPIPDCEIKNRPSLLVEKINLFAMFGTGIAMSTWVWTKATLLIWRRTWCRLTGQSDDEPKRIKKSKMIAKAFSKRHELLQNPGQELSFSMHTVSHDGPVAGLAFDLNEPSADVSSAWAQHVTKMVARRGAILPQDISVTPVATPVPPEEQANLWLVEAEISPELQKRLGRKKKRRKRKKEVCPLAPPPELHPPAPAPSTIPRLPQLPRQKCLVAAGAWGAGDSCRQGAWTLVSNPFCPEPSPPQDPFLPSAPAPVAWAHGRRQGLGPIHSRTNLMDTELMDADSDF
pIC50: −log10 of the molar value.
parameter: pIC50

Past entries and their recorded results:
[
  {
    "compound": "N#Cc1ccc(N2CCN(c3nnc(Cc4cccc(Br)c4)c4ccccc34)CC2)nc1",
    "pIC50": "6.00 to 7.00"
  },
  {
    "compound": "COCC(=O)NCc1ccc(N2CCN(c3nnc(Cc4ccccc4)c4ccccc34)CC2)cc1 [Example 78b]",
    "pIC50": "6.00 to 7.00"
  },
  {
    "compound": "FC1CCN(Cc2ccc(N3CCN(c4nnc(Cc5ccccc5)c5ccccc45)CC3)nc2)CC1",
    "pIC50": "6.00 to 7.00"
  }
]

Given `N#Cc1ccc(C2CCN(c3nnc(Cc4ccccc4)c4ccccc34)CC2)cc1` , state its recorded pIC50.
5.00 to 6.00

Request the reported pIC50 associated with `CC(C)(O)c1cnc(N2CCN(c3nnc(Cc4ccccc4)c4ccccc34)CC2)cc1C(F)(F)F`
> 7.00

Which pIC50 is listed for `N#Cc1ccc(N2CCN(c3nnc(Cc4cccc(F)c4)c4ccccc34)CC2)nc1` ?
6.00 to 7.00

Quick check: pIC50 of `COCC(=O)NC(C)(C)c1ccc(N2CCN(c3nnc(Cc4ccccc4)c4ccccc34)CC2)nc1` ?
> 7.00

pIC50 for `COC(=O)c1cnc(N2CCN(c3nnc(Cc4ccccc4)c4ccccc34)C[C@H]2C)cn1` ?
> 7.00

Quick check: pIC50 of `COc1ccc(Cc2nnc(N3CCN(c4ccc(C#N)cn4)CC3)c3ccccc23)cc1OC` ?
5.00 to 6.00

What pIC50 value was documented for this compound, `CC(C)(O)c1ccc(N2CCN(c3nnc(Cc4ccccc4Cl)c4ccccc34)CC2)nc1` ?
> 7.00

Which measured pIC50 value corresponds to `N#Cc1ccc(N2CCC(c3cn(Cc4ccccc4)c4ccccc34)CC2)nc1` ?
6.00 to 7.00

* * *

Quick list: IC50 per entry.
# System: Gli-luciferase activity
# test.description: Reporter gene assay (RGA) in TMHh12 cells, antagonism of Gli-luciferase activity in the presence of a Smo agonist
# Assay type: cell-based
# measurement.conditions: 25 nM small molecule Smo agonist, read-out: RGA (25 nM Smo agonist) IC50

In the examples that follow, each entry is paired with its recorded IC50.
[
  {
    "structure.smiles": "C[C@@H]1CN(c2ccc(C#N)cn2)CCN1c1nnc(Cc2ccccc2)c2ccccc12",
    "result": "1000 to 10000 nM"
  },
  {
    "structure.smiles": "CCC(=O)NCc1ccc(N2CCN(c3nnc(Cc4ccccc4)c4ccccc34)CC2)nc1",
    "result": "100 to 1000 nM"
  },
  {
    "structure.smiles": "Fc1cnc(N2CCN(c3nnc(Cc4ccccc4)c4ccccc34)CC2)c(F)c1",
    "result": "1000 to 10000 nM"
  },
  {
    "structure.smiles": "CCOC(=O)c1ccc(N2CCN(c3nnc(Cc4ccccc4)c4ccccc34)CC2)nc1",
    "result": "100 to 1000 nM"
  },
  {
    "structure.smiles": "C[C@H]1CN(c2ccc(C#N)cn2)CCN1c1nnc(Cc2ccccc2)c2ccccc12",
    "result": "100 to 1000 nM"
  },
  {
    "structure.smiles": "c1ccc(Cc2nnc(N3CCCN(c4ncccn4)CC3)c3ccccc23)cc1",
    "result": "100 to 1000 nM"
  },
  {
    "structure.smiles": "COC(C)(C)c1ccc(N2CCN(c3nnc(Cc4ccccc4)c4ccccc34)CC2)nc1",
    "result": "< 100 nM"
  }
]

Alright, here's another compound for you.
Request the reported IC50 associated with `Cc1cc(Cc2ccc(Cl)cc2)nnc1N1CCN(c2ccc(C#N)cn2)CC1`
1000 to 10000 nM

* * *

# System: Gli-luciferase activity
# test.description: Reporter gene assay (RGA) in TMHh12 cells, antagonism of Gli-luciferase activity in the presence of a Smo agonist
# Format: cell-based
# measurement.conditions: 25 nM small molecule Smo agonist, read-out: RGA (25 nM Smo agonist) IC50
# Method: Activity of the compounds was evaluated using a reporter gene assay (RGA) in TMHh12 cells.
pIC50: −log10 of the molar value.
parameter: pIC50

Example entries begin here.
[
  {
    "compound": "CCOC(=O)c1ccc(N2CCN(c3nnc(Cc4ccccc4)c4ccccc34)CC2)cc1",
    "pIC50": "6.00 to 7.00"
  },
  {
    "compound": "N#Cc1ccc(N2CCN(c3nnc(Cc4ccc(F)cc4)c4c3CCCC4)CC2)nc1 [Example 93b]",
    "pIC50": "6.00 to 7.00"
  },
  {
    "compound": "CC(C)c1cnc(N2CCN(c3nnc(Cc4ccccc4)c4ccccc34)CC2)cn1",
    "pIC50": "> 7.00"
  }
]

Fill in the blank: the reported pIC50 of `N#Cc1cnc(N2CCN(c3nnc(Cc4ccccc4)c4ccccc34)CC2)nc1` is ____.
6.00 to 7.00

Could you tell me which pIC50 is on file for `COCCC(=O)NC(C)(C)c1ccc(N2CCN(c3nnc(Cc4ccccc4)c4ccccc34)CC2)nc1` ?
6.00 to 7.00

Name the reported pIC50 value associated with the compound NC1CN(C(=O)c2ccc(N3CCN(c4nnc(Cc5ccccc5)c5ccccc45)CC3)nc2)C1 [Example 54w]
5.00 to 6.00

Recorded pIC50 for `FC(F)(F)c1ccc(N2CCC(c3cn(Cc4ccc(Br)cc4)c4ccccc34)CC2)nc1` , please?
5.00 to 6.00

Recorded pIC50 of `N#Cc1ccc(N2CCN(c3nnc(Cc4ccc(Br)cc4)c4ccccc34)CC2)nc1` , please.
6.00 to 7.00

* * *

IC50 values, listed per item
# Tested on: Gli-luciferase activity
# test.description: Reporter gene assay (RGA) in TMHh12 cells, antagonism of Gli-luciferase activity in the presence of a Smo agonist
# Type: cell-based
# measurement.conditions: 25 nM small molecule Smo agonist, read-out: RGA (25 nM Smo agonist) IC50

[
  {
    "compound": "c1ccc(Cc2nnc(N3CCN(c4ccc(CN5CCOCC5)cn4)CC3)c3ccccc23)cc1",
    "measurement.target": "Gli-luciferase activity",
    "parameter": "IC50",
    "result": "< 100 nM"
  }
]

Which IC50 is listed for CN(CCO)C(=O)c1ccc(N2CCN(c3nnc(Cc4ccccc4)c4ccccc34)CC2)nc1 [Example 54c] ?
100 to 1000 nM

* * *

# Tested on: Gli-luciferase activity
# test.description: Reporter gene assay (RGA) in TMHh12 cells, antagonism of Gli-luciferase activity in the presence of a Smo agonist
# Assay type: cell-based
# measurement.conditions: 25 nM small molecule Smo agonist, read-out: RGA (25 nM Smo agonist) IC50
pIC50: −log10 of the molar value.
Each record here notes measured pIC50.

Before answering, review these 3 worked examples.
[
  {
    "compound": "CC(C)(C)c1ccc(N2CCN(c3nnc(Cc4cc(Cl)cc(Cl)c4)c4ccccc34)CC2)nc1 [Example 9]",
    "pIC50": "6.00 to 7.00"
  },
  {
    "compound": "CN(C)Cc1ccc(N2CCN(c3nnc(Cc4ccccc4)c4ccccc34)CC2)nc1 [Example 217]",
    "pIC50": "5.00 to 6.00"
  },
  {
    "compound": "CC(=O)NCc1ccc(N2CCN(c3nnc(Cc4ccccc4)c4ccccc34)CC2)nc1 [Example 70]",
    "pIC50": "6.00 to 7.00"
  }
]

Next up:
Recorded pIC50 for COCC(=O)NCc1ccc(N2CCN(c3nnc(Cc4ccccc4)c4ccccc34)CC2)nc1 [Example 208] , please?
> 7.00

* * *

Below, each entry is listed alongside its reported pIC50.
# measurement.target: UniProt:P56726
# Sequence (P56726 33-793): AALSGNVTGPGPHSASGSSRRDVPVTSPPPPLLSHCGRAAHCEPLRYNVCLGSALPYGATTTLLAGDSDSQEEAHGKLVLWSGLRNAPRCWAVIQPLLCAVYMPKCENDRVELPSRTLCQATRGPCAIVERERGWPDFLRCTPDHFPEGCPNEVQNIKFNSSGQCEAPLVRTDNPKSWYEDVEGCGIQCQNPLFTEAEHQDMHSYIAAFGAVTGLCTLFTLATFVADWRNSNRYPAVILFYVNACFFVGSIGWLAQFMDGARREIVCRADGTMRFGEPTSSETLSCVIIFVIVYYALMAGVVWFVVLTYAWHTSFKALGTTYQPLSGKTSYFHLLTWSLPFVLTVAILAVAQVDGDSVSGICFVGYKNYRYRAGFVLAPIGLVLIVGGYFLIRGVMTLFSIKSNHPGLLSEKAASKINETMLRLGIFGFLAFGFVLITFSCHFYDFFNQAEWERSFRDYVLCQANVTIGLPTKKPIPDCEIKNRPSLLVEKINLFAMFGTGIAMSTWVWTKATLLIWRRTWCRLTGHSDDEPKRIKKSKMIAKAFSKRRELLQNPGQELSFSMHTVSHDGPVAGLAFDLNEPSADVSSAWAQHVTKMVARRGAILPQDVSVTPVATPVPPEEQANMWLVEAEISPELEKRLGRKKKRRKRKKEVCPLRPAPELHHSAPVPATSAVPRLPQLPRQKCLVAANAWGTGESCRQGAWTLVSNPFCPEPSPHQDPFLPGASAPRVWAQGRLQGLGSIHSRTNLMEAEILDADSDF
pIC50: −log10 of the molar value.

[
  {
    "molecule": "OC(c1ccc(N2CCN(c3nnc(Cc4ccccc4)c4ccccc34)CC2)nc1)C1CCCC1 (centres unmarked)",
    "measurement.target": "UniProt:P56726",
    "pIC50": "> 7.00"
  },
  {
    "molecule": "CC(=O)NC(C)(C)c1ccc(N2CCN(c3nnc(Cc4ccccc4)c4ccccc34)CC2)nc1",
    "measurement.target": "UniProt:P56726",
    "pIC50": "> 7.00"
  },
  {
    "molecule": "C[C@@H]1CN(c2nnc(Cc3ccccc3)c3ccccc23)CCN1c1ccc(C#N)cn1",
    "measurement.target": "UniProt:P56726",
    "pIC50": "> 7.00"
  },
  {
    "molecule": "CC(C)(O)Cc1ccc(N2CCN(c3nnc(Cc4ccccc4)c4ccccc34)CC2)nc1",
    "measurement.target": "UniProt:P56726",
    "pIC50": "> 7.00"
  },
  {
    "molecule": "COc1cc(=O)[nH]c(N2CCN(c3nnc(Cc4ccccc4)c4ccccc34)CC2)n1",
    "measurement.target": "UniProt:P56726",
    "pIC50": "6.00 to 7.00"
  },
  {
    "molecule": "C[C@H]1CN(c2ccc(C(C)(C)O)cn2)CCN1c1nnc(Cc2ccccc2)c2ccccc12",
    "measurement.target": "UniProt:P56726",
    "pIC50": "> 7.00"
  }
]

Missing value: pIC50, UniProt:P56726, entry OC1CCN(Cc2ccc(N3CCN(c4nnc(Cc5ccccc5)c5ccccc45)CC3)nc2)C1 (centres unmarked) . Fill in?
> 7.00

Please provide the recorded pIC50 for `COc1ccc(Cc2nnc(N3CCN(c4ccc(C#N)cn4)CC3)c3ccccc23)cc1` , tested on UniProt:P56726.
6.00 to 7.00
